- System: Streptococcus pyogenes
- PROTOCOL NOTES: Antibacterial activity against constitutive MLS resistant Streptococcus pyogenes by agar microdilution method
- Format: functional
PROPERTY MEASURED: MIC (µg/mL)
Your answer should be a plain number; it is taken to be in µg/mL.

Answered cases to consult:
{"columns": ["CHEMICAL STRING", "TARGET DESC", "PROPERTY MEASURED", "NUMERIC READOUT"],
 "data": [
  ["CC[C@H]1OC(=O)[C@H](C)[C@@H](O[C@H]2C[C@@](C)(OC)[C@@H](OCCNCCOCCNc3cc4c(cc3F)c(=O)c(C(=O)O)cn4C3CC3)[C@H](C)O2)[C@H](C)[C@@H](O[C@@H]2O[C@H](C)C[C@H](N(C)C)[C@H]2O)[C@](C)(O)C[C@@H](C)CN(C)[C@H](C)[C@@H](O)[C@]1(C)O", "Streptococcus pyogenes", "MIC", 2],
  ["CC[C@H]1OC(=O)[C@H](C)[C@@H](O[C@H]2C[C@@](C)(OC)[C@@H](OCCN3CCN(c4ccc5c(c4)c(=O)c(C(=O)O)cn5CC)CC3)[C@H](C)O2)[C@H](C)[C@@H](O[C@@H]2O[C@H](C)C[C@H](N(C)C)[C@H]2O)[C@](C)(O)C[C@@H](C)CN(C)[C@H](C)[C@H]2OC(=O)O[C@@]21C", "Streptococcus pyogenes", "MIC", 32]
]}

Next, consider the following compound.
Specify MIC for "CC[C@H]1OC(=O)[C@H](C)[C@@H](O[C@H]2C[C@@](C)(OC)[C@@H](OCCNCCNc3cc4c(=O)c(C(=O)O)cn(C5CC5)c4cc3Cl)[C@H](C)O2)[C@H](C)[C@@H](O[C@@H]2O[C@H](C)C[C@H](N(C)C)[C@H]2O)[C@](C)(O)C[C@@H](C)CN(C)[C@H](C)[C@@H](O)[C@]1(C)O" , system Streptococcus pyogenes.
16
